- MEASURED TARGET: T1, c-erbB-2 ECD with a Ser-Gly-His6 C-terminal fusion (UniProt P04626 23-652)
- T1 construct: extracellular domain; Expressed from CHO cells, IMAC purified; coupled to a CM5 chip, coated on plates, or biotinylated with NHS-LC-biotin; also called c-erbB-2 extracellular domain; biotinylated c-erbB-2 ECD
- ASSAY COMMENT: SPR BIAcore
For each record, write down the corresponding pKd.
Give only the number. pKd is defined as minus log10 of concentration in molar units.

Request: Which pKd is reported for this binder? C6MH3-D6 (scFv, C6ML3-9 sFv, VH CDR3 library D mutant) scFv: QVQLLQSGAELKKPGESLKISCKGSGYSFTSYWIAWVRQMPGKGLEYMGLIYPGDSDTKYSPSFQGQVTISVDKSVSTAYLQWSSLKPSDSAVYFCARHDVGYCSSSNCAKWPEWMYPWGQGTLVTVSSGGGGSGGGGSGGGGSQSVLTQPPSVSAAPGQKVTISCSGSSSNIGNNYVSWYQQLPGTAPKLLIYGHTNRPAGVPDRFSGSKSGTSASLAISGFRSEDEADYYCASWDYTLSGWVFGGGTKLTVLG
Result: 9.46

Request: Which pKd is reported for this binder? C6ML3-9 (scFv, template (wt) of the VH CDR3 libraries; also called C6ML3-9 (wt); C6ML-9) scFv: QVQLLQSGAELKKPGESLKISCKGSGYSFTSYWIAWVRQMPGKGLEYMGLIYPGDSDTKYSPSFQGQVTISVDKSVSTAYLQWSSLKPSDSAVYFCARHDVGYCSSSNCAKWPEYFQHWGQGTLVTVSSGGGGSGGGGSGGGGSQSVLTQPPSVSAAPGQKVTISCSGSSSNIGNNYVSWYQQLPGTAPKLLIYGHTNRPAGVPDRFSGSKSGTSASLAISGFRSEDEADYYCASWDYTLSGWVFGGGTKLTVLG
Result: 9.00

Request: Which pKd is reported for this binder? C6MH3-B16 (scFv, C6ML3-9 sFv, VH CDR3 library B mutant) scFv: QVQLLQSGAELKKPGESLKISCKGSGYSFTSYWIAWVRQMPGKGLEYMGLIYPGDSDTKYSPSFQGQVTISVDKSVSTAYLQWSSLKPSDSAVYFCARHDVGYCADVRCAKWPEYFQHWGQGTLVTVSSGGGGSGGGGSGGGGSQSVLTQPPSVSAAPGQKVTISCSGSSSNIGNNYVSWYQQLPGTAPKLLIYGHTNRPAGVPDRFSGSKSGTSASLAISGFRSEDEADYYCASWDYTLSGWVFGGGTKLTVLG
Result: 9.51

Request: Which pKd is reported for this binder? C6MH3-B11 (scFv, C6ML3-9 sFv, VH CDR3 library B mutant) scFv: QVQLLQSGAELKKPGESLKISCKGSGYSFTSYWIAWVRQMPGKGLEYMGLIYPGDSDTKYSPSFQGQVTISVDKSVSTAYLQWSSLKPSDSAVYFCARHDVGYCSDRSCAKWPEYFQHWGQGTLVTVSSGGGGSGGGGSGGGGSQSVLTQPPSVSAAPGQKVTISCSGSSSNIGNNYVSWYQQLPGTAPKLLIYGHTNRPAGVPDRFSGSKSGTSASLAISGFRSEDEADYYCASWDYTLSGWVFGGGTKLTVLG
Result: 9.66

Request: Which pKd is reported for this binder? C6MH3-C4 (scFv, C6ML3-9 sFv, VH CDR3 library C mutant; also called mutant sFv K100gV) scFv: QVQLLQSGAELKKPGESLKISCKGSGYSFTSYWIAWVRQMPGKGLEYMGLIYPGDSDTKYSPSFQGQVTISVDKSVSTAYLQWSSLKPSDSAVYFCARHDVGYCSSSNCAVWPEYFQHWGQGTLVTVSSGGGGSGGGGSGGGGSQSVLTQPPSVSAAPGQKVTISCSGSSSNIGNNYVSWYQQLPGTAPKLLIYGHTNRPAGVPDRFSGSKSGTSASLAISGFRSEDEADYYCASWDYTLSGWVFGGGTKLTVLG
Result: 9.43

Request: Which pKd is reported for this binder? C6MH3-D5 (scFv, C6ML3-9 sFv, VH CDR3 library D mutant) scFv: QVQLLQSGAELKKPGESLKISCKGSGYSFTSYWIAWVRQMPGKGLEYMGLIYPGDSDTKYSPSFQGQVTISVDKSVSTAYLQWSSLKPSDSAVYFCARHDVGYCSSSNCAKWPEWMQMWGQGTLVTVSSGGGGSGGGGSGGGGSQSVLTQPPSVSAAPGQKVTISCSGSSSNIGNNYVSWYQQLPGTAPKLLIYGHTNRPAGVPDRFSGSKSGTSASLAISGFRSEDEADYYCASWDYTLSGWVFGGGTKLTVLG
Result: 9.42
